Attribution: PubChem BioAssay (NCI)

Tested on: A549 NSCLC
assay comment: NCI tumour cell line growth inhibition, 48 h
reported metric: TGI

Endpoint output: TGI of CC/C(=C\c1ccc(N(C)C)cc1)c1ccncc1 . Value?
> 100 µM

Now the molecule CSc1ccc(/C=C2\N=C(c3ccccc3)N(NC(=O)c3c(Cl)c(Cl)c(Cl)c(Cl)c3-c3nc4ccccc4[nH]3)C2=O)cc1
> 100 µM

Can you check NCCCc1nonc1C(=O)O next?
> 100 µM

What about this molecule? COc1cc(CCNC2=CC(=O)c3ncccc3C2=O)ccc1O
6.44 µM

Same for COc1cccc(-c2cc(-c3ccc(Nc4nc(Nc5ccc(Cl)cc5)nc(Nc5ccc(Cl)cc5)n4)cc3)nc(N)c2C#N)c1
> 100 µM

Also check CC(=O)OC(C(=O)NNC(=O)OC(C)(C)C)c1ccccc1 (stereo not given)
> 100 µM

Please do the same for CC1(C)CC[C@]2(C(=O)O)CC[C@]3(C)C(=CC[C@@H]4[C@@]5(C)C/C(=C/c6cccnc6)[C@H](O)C(C)(C)[C@@H]5CC[C@]43C)[C@@H]2C1 as well.
> 100 µM

Try the molecule COC(=O)[C@@H](C)C[C@H](Cc1ccccc1)NC(=O)c1nc([C@@H](C[C@H](C(C)C)N(C)C(=O)[C@@H](NC(=O)[C@H]2CC(=O)CCN2C)C(C)C)OC(C)=O)sc1C(C)C
> 16.7 µM

Likewise for CCOP(=O)(OCC)/C(F)=C/c1ccc(F)cc1 ?
> 100 µM

Query Cc1ccc(CNc2ccc(Cl)cc2NCc2ccc(C)c(O)c2)cc1O next
15.3 µM

Please answer likewise for COc1ccc(N(c2ccc(C#N)cc2)c2ccc(C#N)cc2)cc1
> 100 µM

Again, but for COc1ccc2c(c1)SC1=Nc3sc4cc(OC)ccc4[n+]3CN12
> 100 µM

Subsequent entry: Cc1[nH]n(C(=O)Cc2ccccc2)c(=O)c1/C=C1\C(=O)C=Cc2ccccc21
> 100 µM

Param item: O=c1cc(O)c1=O
> 100 µM

Can you check O=c1c2cc(F)ccc2sc2c(NCCCNCCO)nc3ccc(F)cc3c12 next?
4.4 µM

###

Test system: MOLT-4 leukemia
assay comment: NCI tumour cell line growth inhibition, 48 h
reported metric: TGI

# query: TGI of entry CCOP(=O)(OCC)/C(F)=C/c1ccc(F)cc1
> 100 µM

Then O=C(c1ccccc1)N1CCc2c([nH]c3ccccc23)C1 ?
64.4 µM

Try this compound too: Cc1c(S(=O)(=O)/N=C(\NO)Nc2ccc(Cl)cc2)sc2ccc(Cl)cc12
> 100 µM

Now the compound COc1cc2c(cc1O)CCN[C@@]21CS[C@H]2c3c(OC(C)=O)c(C)c4c(c3C(COC1=O)N1C2C2NC(Cc3cc(C)c(OC)c(O)c32)[C@@H]1C#N)OCO4 (stereo not given in full)
< 0.01 µM

Query CC(=O)[O-].O=C([CH-]C(=O)c1ccccc1)c1ccccc1.O=C([CH-]C(=O)c1ccccc1)c1ccccc1.[Dy+3] next
31.9 µM

Note, next up: COc1ncc(-c2ccc3nc(N)n(-c4ccccc4C(F)(F)F)c(=O)c3c2)cc1S(=O)(=O)Nc1ccc(F)cc1F
56.1 µM

Same question, CCOC(=O)c1cn2c(n1)sc1cc([N+](=O)[O-])ccc12 this time
> 100 µM

And what about the compound CS(=O)(=O)Sc1ccc(Cl)cc1 ?
21.7 µM

Queued: C/C=C/C(C/C=C(\C)CO[Si](C)(C)C(C)(C)C)O[Si](C)(C)C(C)(C)C (stereo not given)
> 100 µM

Now give it for CCc1cccc(CC)c1NC1=CC(=O)C(=O)c2ccccc21 too.
> 100 µM

Try CC(=O)OCC1OC(NC(=S)Nn2c(-c3ccccc3)nc3ccccc3c2=O)C(OC(C)=O)C(OC(C)=O)C1OC(C)=O (stereo not given) next.
> 100 µM

Record: O=C(N=Nc1c(O)[nH]c2c(Cl)cc(Cl)cc12)C(=O)Nc1cccc(C(F)(F)F)c1
> 100 µM

What do we get for Cc1nc2ccccc2c(=O)n1/N=C(\N=Nc1ccc(Cl)cc1)c1ccc(N(C)C)cc1 ?
> 100 µM

Record: CCn1c(O)c(C(=O)Nc2cccs2)c(=O)n(CC)c1=S
59.8 µM

Next entry: CCc1c(N=[N+]=[N-])c2ccccc2oc1=O
> 100 µM

Moving on to COc1cc(C(=O)N[C@@H]2CCCN(C)C2)ccc1Nc1ncc2c(n1)N(C1CCCC1)CC(C)(C)C(=O)N2C
3.89 µM

// repeat for Cc1ccc(Nc2nc3ccccc3nc2NS(=O)(=O)c2ccc(N)cc2)cc1 and report
81.8 µM

Now consider Cc1n[nH]c(C)c1-c1c(C)n[nH]c1C and answer again.
> 27.3 µM

What about Cc1cc(C)c(CNC(=O)c2cc(Cl)c3c(c2C)O[C@@](C)(C2CCC(N(C)C)CC2)O3)c(=O)[nH]1 (stereo not given in full) ?
> 100 µM

Cool, now O=C1Nc2ccc(I)cc2/C1=C/c1cc(Br)c(O)c(Br)c1
> 100 µM

###

Would you kindly list TGI for each of these compounds?
System: SK-MEL-2 melanoma
assay comment: NCI tumour cell line growth inhibition, 48 h

// returns reported TGI for input COc1ccc(CCN2C(=O)C(=O)C(C(=O)c3ccccc3)C2c2ccccc2)cc1OC (stereo not drawn)
> 100 µM

Please answer likewise for O=C(NNC(=O)c1cc2ccccc2[nH]1)c1cc2ccccc2[nH]1
> 100 µM

Another compound to check: O=c1[nH]c2ccccc2c(=O)c2cc3ccccc3cc12
> 100 µM

Next entry: COc1ccc(N(c2ccc(C#N)cc2)c2ccc(C#N)cc2)cc1
> 100 µM

Same read-out for COC(=O)C(Cc1ccc2c(c1)OCO2)(NC(=O)c1ccccc1)P(=O)(OC)OC (stereo not drawn) ?
> 100 µM

Item: CC1(C)OC(COP2OCCO2)[C@H](COP2OCCO2)O1 (stereo partly drawn)
> 100 µM

// repeat for O=C(Nc1cc(Cl)ccc1Cl)c1cc2ccccc2oc1=O and report
> 100 µM

Try this compound too: CC(C)c1cc(C(C)C)c(S(=O)(=O)N/N=C2\CC3CCC2(C)C3(C)C)c(C(C)C)c1 (stereo not drawn)
> 100 µM

Then this compound: O=C(N=Nc1c(O)[nH]c2c(Cl)cc(Cl)cc12)C(=O)Nc1cccc(C(F)(F)F)c1
> 100 µM

Try the compound Cc1cc(Br)ccc1N=NC1C(=O)ON=C1c1ccccc1 (stereo not drawn)
> 100 µM

Also C[C@H]1CC(=O)C[C@@H]2CC[C@@H]3[C@H](CC[C@]4(C)C(OC(=O)c5cccc6c(=O)c7ccccc7[nH]c56)CC[C@@H]34)[C@]21C (stereo partly drawn) ?
> 100 µM

Try this compound next: CN1CC[C@H](N(C)C(=O)N2CC(c3cc(F)ccc3F)=C[C@@]2(CO)c2ccccc2)[C@H](F)C1
79.4 µM

Lookup Nc1cc2c(C3OC(CO)C(O)C3O)[nH]nc2c(=S)[nH]1 (stereo not drawn)
> 100 µM

Next record, please: COc1ccc2nc3cc(Cl)ccc3c(NCCCN(C)CCCNc3ccc4ncn5c6ccccc6c(=O)c3c45)c2c1
7.23 µM

Try this compound next: CCOC(=O)c1cn2c(n1)sc1cc([N+](=O)[O-])ccc12
> 100 µM

COc1cc2c(cc1O)CCN[C@@]21CS[C@H]2c3c(OC(C)=O)c(C)c4c(c3C(COC1=O)N1C2C2NC(Cc3cc(C)c(OC)c(O)c32)[C@@H]1C#N)OCO4 (stereo partly drawn) ?
< 0.01 µM

Also O=C(/C=C/c1c[nH]c2ccccc12)c1ccccc1O , if possible.
18.6 µM

Cool, now CNC(=S)N/N=C/CSC/C=N/NC(=S)NC
> 100 µM

What do we get for O=C1C/C(=C\c2ccccc2)C(=O)c2ccccc2N1 ?
60.6 µM

What about CCc1cccc(CC)c1NC1=CC(=O)C(=O)c2ccccc21 ?
35.9 µM

Could you do the same for O=c1ccn([C@@H]2C[C@H](CO)CS(=O)C2)c(=O)[nH]1 (stereo partly drawn) , please?
> 100 µM

Then O=c1oc2cc(O)ccc2c(O)c1C(c1ccc(/C=C/c2ccccc2)cc1)c1c(O)c2ccc(O)cc2oc1=O ?
> 100 µM

Also need O=C(O)c1ccc2nc(-c3ccccn3)c(-c3ccccn3)nc2c1 , thanks.
> 100 µM

###

System: RXF 393 renal
assay comment: NCI tumour cell line growth inhibition, 48 h
reported metric: TGI

I'd like to know its TGI. The compound in question is CC(=O)Nc1ccc(/C=C/C(=O)c2sc(-n3nc(-c4ccccc4)cc3-c3ccccc3)nc2C)cc1
> 100 µM

Now give it for N#Cc1cccc(C2SCc3nc4ccccc4n32)c1 (stereo not drawn) too.
> 100 µM

Can you check CC(=O)OCC1OC(NC(=S)Nn2c(-c3ccccc3)nc3ccccc3c2=O)C(OC(C)=O)C(OC(C)=O)C1OC(C)=O (stereo not drawn) next?
> 100 µM
